System: RARg:RXRa (NR concentration 270 nM, RXRa partner concentration 90 nM)
assay: PBM binding z-score (relative to random genomic background probes); higher = stronger binding; sequences stand for … in GC…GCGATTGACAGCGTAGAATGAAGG
reported_property: PBM binding z-score

INSERT INTO measurements (sequence_chain, reported_property, experimental_value) VALUES
  ('CCGACTGGGGCAAGGTTACCTTAACGCACAGCCA', 'PBM binding z-score', 0.881),
  ('ACTATTAGGTGACTTAGGGCAACCGATACGACGC', 'PBM binding z-score', 1.18),
  ('ACAGACAGGTGAGTGAAGTTAACTCAGCTGGACG', 'PBM binding z-score', -0.0567),
  ('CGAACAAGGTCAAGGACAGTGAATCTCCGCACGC', 'PBM binding z-score', 6.08),
  ('CAAACTAGGTCAAGGTCAAAGTGGGTTTGTGCCA', 'PBM binding z-score', 5.95),
  ('CCTTACGGGTCACGAGGTTATACCACGACGAGCG', 'PBM binding z-score', 6.22),
  ('CTCGAAAGGTCTGTTGAGGTGAGTATACGGATAA', 'PBM binding z-score', 0.827),
  ('ATCTCTAGGTAGAGTTCAGTGAAAGATCGATAGA', 'PBM binding z-score', 1.61),
  ('AGTCAAAGTTCATCTAGGTAACGTATGATATGCT', 'PBM binding z-score', 5.57),
  ('CCTACTGGGCCAAAAAGATCATTGATGCCGATAA', 'PBM binding z-score', -0.189),
  ('GCTAGCATGCCATTTGGGTCACTCAATGACGGGC', 'PBM binding z-score', 0.756),
  ('CCTTATGGGTCACTCCAGGTTATAGCATCGGAGT', 'PBM binding z-score', 3.68),
  ('ACAGACGGGTGATGAAGGTAACTCAGGCTATCAT', 'PBM binding z-score', -0.0351),
  ('CATACAGGGTCAGATAGGCCAGAGTAGGGACGGC', 'PBM binding z-score', 4.18),
  ('CGTCCACGGTCAAGGTCAGTGAAAGAGACTCGAA', 'PBM binding z-score', 3.41),
  ('GCTAGTTGGTCAGTAAAAGGTTACACACCGGTCG', 'PBM binding z-score', 2.11),
  ('CAAACTAGGTCCCGAAAGGTCAAAGTCGAATGAC', 'PBM binding z-score', 5.77),
  ('ATAGGTAGGTTATCGGGTCATTCAGTTTGCGCAT', 'PBM binding z-score', 3.46),
  ('CCTAGCAGGCCAATGTGGGTCACTCAAGGCTTGA', 'PBM binding z-score', 1.23),
  ('CCAGACAGGTGAAAGGTAAGTCAGTCTGGTACGC', 'PBM binding z-score', 1.2),
  ('ACTTACGGGTCCACGAGGTTATAGCACGCGTATA', 'PBM binding z-score', 1.43),
  ('ACAGACAGGGGAGTGAAGGTAACTCAGCTGGACG', 'PBM binding z-score', -0.128),
  ('ACGATTAGTTGACTTAGGGCAACCGATACGACGC', 'PBM binding z-score', 0.65),
  ('ACCGACAGGTGATGAAGGTAACTCAGGCTATCAT', 'PBM binding z-score', 0.16),
  ('CCTTACGGGTCACCCCAGGTTATAGCATCGGAGT', 'PBM binding z-score', 5.05),
  ('ATATGTAGATTATCGGGTCATTCAGTTTGCGCAT', 'PBM binding z-score', 1.94);
